- Tested on: K4 kissing-loop RNA reporter;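 note: bound reporter read as fluorescence of individual clusters on recovered sequencing chips by microscopy, with normalized cluster intensities fitted with a binding model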
- protocolText: apparent KD of K4 kissing-loop reporter; higher = weaker reporter binding
- conditionDescription: Eterna round: R107; input ligand: tryptophan 2.4 mM
resultType: apparent KD of K4 kissing-loop reporter (nM)
Give bare numbers, in nM.

chainSequence | unitOfMeasure | readoutNumber
GACCCAGAAGCACACCUAAAGUUGACAGAUACCAGCGUCGUUUGGCGCCCUUGGCAGCUGGUCAGUGAUGUUGAUAGCUUCGACU [theeternabot_sameState_KL_Theo_A_24] | nM | 93.6
GUUACGCAUGGAAGGAGCGCAGGCUCAACAAAUAGCUCAGUGAUGUUGAGCAAAUUAAAACUGCAGGUAGGUCGCCAUGUGUAAC [Ex Arginine B K4 22] | nM | 422
AAAAUAAACCAGUGAUGUUGGUGUCCGGAUACCAGCGAUAAUCAUCGCCCUUGGCAGCCGCGGACGUACAAAAUAAGUACGUCCU [MatMod 13 - Jieux - Same State - Theophylline A] | nM | 256
AAACUACGUGACGAUACCAGCUUACUCGGCAAGCCAGUGAUGUUGGUGAAAAGGAGUCAAAGCCCUUGGCAGCGUCGAAGGUUUG [Usandiat] | nM | 255

List reported apparent KD of K4 kissing-loop reporter for each of these sequences:
1. GAUAUAGUGAUGUUAUAUACUGAUAGACAACGAGGACCGGUACGGCCGCCACUCGAGAGGGUGAAAAUGGUGAUAAAAUAAUGAU [#03 K4 Tryptophan A Exclusion]
2. GCAACAUUGGCAGGAUAUCCUUCUCAGUGAUGUUGAGGGUUCAGCUAACGAAAGUUAGUUGUACCGGGAGAAGGGCUAAUGUUGC [Omei KL FMN B SS A v8]

[A]
[274, 1240]
